experiment: Apparent permeability across human Caco-2 cells; assay type: ADME, cell-based

- compound: "C=CC1=C(C)/C(=C/c2[nH]c(Cc3[nH]c(/C=C4\\NC(=O)C(C)=C4C=C)c(C)c3CCC(=O)NCCS(=O)(=O)O)c(CCC(=O)NCCS(=O)(=O)O)c2C)NC1=O [BILIRUBIN DITAURATE]"
  Papp: "0.39 ×10⁻⁶ cm/s"
- compound: "C=CC1=C(C)/C(=C/c2[nH]c(Cc3[nH]c(/C=C4\\NC(=O)C(C)=C4C=C)c(C)c3CCC(=O)O)c(CCC(=O)O)c2C)NC1=O [BILIRUBIN]"
  Papp: "0.02 ×10⁻⁶ cm/s"
- compound: "C=CC1=C(C)/C(=C/C2=NC(=C\\c3[nH]c(/C=C4\\NC(=O)C(C)=C4C=C)c(C)c3CCC(=O)O)/C(CCC(=O)O)=C2C)NC1=O [BILIVERDIN]"
  Papp: "1.01 ×10⁻⁶ cm/s"

Reference source: ChEMBL document CHEMBL1157163
